src = ChEMBL document CHEMBL1201862

Tested on: NCI-H226
TEST_NAME: NCI tumour cell line growth inhibition, 48 h
Active and inactive are the calls of the source. Rule as the data show it: active = GI50 up to about 1.1 µM and inactive = higher.
Outcome codes: active, inactive

COMPOUND | ASSIGNED_LABEL
C=C(C)CNC(=S)N(N)c1ccc(OC)cc1 | inactive
CCOC(=O)c1c(NC(=O)c2ccc(Br)cc2)sc2c1CCCC2 | inactive
CNc1c2c(c3nc4ccccc4c4c3c1N=C4)NCCC2=O | inactive
Cc1ccc(C(CC(=O)C(C)(C)CN2CCCCC2)SCCS(=O)(=O)O)cc1 (configuration not stated) | inactive
O=C(O)CN1CCCC(Cc2c[nH]c3ccccc23)C1 (configuration not stated) | inactive
CC(=O)O[C@H]1C(=O)[C@@]2(C)[C@H]([C@H](OC(=O)c3ccccc3)[C@]3(O)C[C@H](OC(=O)[C@H](O)[C@@H](NC(=O)CC(C)(C)C)c4ccccc4)C(C)=C1C3(C)C)C1(OC(C)=O)CO[C@@H]1C[C@@H]2O (some centres not stated) | active
O=C(O)c1ccccc1/C=N/N=C1NCCN1 | inactive
O=c1ncccn1C1OC(CO)C(O)C1O (configuration not stated) | inactive
O=C(c1ccc(Cl)cc1)N(C(=S)OC12CC3CC(CC(C3)C1)C2)c1ccccc1 | inactive
N#Cc1c(C#N)c(SSc2c(C#N)c(C#N)c(N)n2-c2ccccc2)n(-c2ccccc2)c1N | inactive
NC1C/C(=N\O)c2c(Cl)sc(Cl)c21 (configuration not stated) | inactive
CC#CCOC(=O)c1ccccc1OC(C)=O | inactive
CC(=C/C=C/C=C(C)\C=C\C=C(\C)C(=O)O)/C=C/C=C(/C)C(=O)O | inactive
COC(=O)c1c2c(cc3c1CC1(Cc4cc5c(cc4C1=O)CCC5)C3)CCC2 (configuration not stated) | inactive
NC(=S)N/N=C/c1ccc(OC(=O)COc2ccccc2Cl)cn1 | inactive
COc1ccc(N2C(=O)C3c4[nH]c5cc(C)ccc5c4C4CCC(C(C)(C)C)CC4C3C2=O)cc1 (configuration not stated) | inactive
O=C(OC1CCC(=C2SCCCS2)[C@H]1C1SCCCS1)c1ccccc1 (some centres not stated) | inactive
N#Cc1nc(CSCc2ccccc2)oc1N | inactive
O=C1c2cccc3cc4ccccc4c(c23)C(=O)N1CCNCCN1C(=O)c2cccc3cc4ccccc4c(c23)C1=O | inactive
Oc1c(Cl)c(Cl)c(O)c(-c2cnc(-c3ncc(-c4c(O)c(Cl)c(Cl)c(O)c4Cl)s3)s2)c1Cl | inactive
O=[N+]([O-])c1ccc(Sc2c3ccccc3nc3ccccc23)cc1 | inactive
COc1cc(/C=C\c2ccc(C)cc2)cc(OC)c1OC | active
COC(=O)[C@H](C)[C@H]1CC[C@@](C)([C@H]2CC3C(C)(C)[C@H]4CCC(C)=C[C@H]4C[C@@]3(C)O2)OO1 (some centres not stated) | inactive
COC(=O)[C@@H]1OC(C)(c2ccccc2)O[C@H]1C(=O)OC | inactive
COC(=O)C1Cc2c(n(C)c3ccccc23)C(c2ccccc2)N1 (configuration not stated) | inactive
C/C(=N\NC(=S)NNC(=S)N(C)c1ccccc1)c1ccccn1 | inactive
Oc1ncnc2c1sc(=S)n2-c1ccccc1 | inactive
O=c1oc2ccccc2cc1P(=O)(O)O | inactive
Cc1cc(C)c(S(=O)(=O)N2CCN(S(=O)(=O)c3c(C)cc(C)cc3C)OCCCCCO2)c(C)c1 | inactive
COc1ccccc1N1C(=O)/C(=C\c2ccccc2)SC1c1cc(OC)c(OC)c(OC)c1 (configuration not stated) | inactive
CN(O)C(=O)c1cccc(Cl)c1 | inactive
[N-]=[N+]=Nc1cc(=O)n2c3c(cccc13)CCC2 | inactive
O=C1/C(=C/c2ccccc2)CCCc2ccccc21 | inactive
C/C(=N\NC(N)=S)C(CN1CCCCC1)C(C1=C(O)c2ccccc2OC1)c1ccccc1 (configuration not stated) | inactive
COC(=O)C(CCC1CC(OC)N(C(=O)OCc2ccccc2)C1)/N=C/c1ccccc1 (configuration not stated) | inactive
CC(C)OP(=O)(OC(C)C)/C(=N/Nc1ccccc1[N+](=O)[O-])NCCN/C(=N\Nc1ccccc1[N+](=O)[O-])P(=O)(OC(C)C)OC(C)C | inactive
CCOC(=O)C(C)c1nc2cc(N3CCN(C)CC3)c(F)cc2[nH]c1=O (configuration not stated) | inactive

---

GI50 values by entry
Tested on: RXF 393
TEST_NAME: NCI tumour cell line growth inhibition, 48 h
Active and inactive are the calls of the source. Cut-off read from the data, not from the text of the source: active = GI50 up to about 1.1 µM and inactive = higher.

MOLECULE | GI50
N#CCCN(CCC#N)c1ccc(/C=C2\N=C(c3ccccc3)N(c3ccccn3)C2=O)cc1 | > 100 µM (inactive)
COc1ccc(C2S/C(=C\c3cccc(OC)c3)C(=O)N2NC(=O)Cc2ccccc2)cc1 (stereo not given) | > 100 µM (inactive)
COc1ccc2nc3ccc(OC)cc3c(SCc3ccc([N+](=O)[O-])cc3)c2c1 | > 100 µM (inactive)
O=CN(CCN1CCCC1)C1CCc2cc(Cl)c(Cl)cc2C1 (stereo not given) | 10.9 µM (inactive)
O=C1/C(=C/C=C/c2ccccc2)N=C(c2ccccc2)N1C1Nc2cc3c(cc2S1)NC(N1C(=O)/C(=C/C=C/c2ccccc2)N=C1c1ccccc1)S3 (stereo not given) | 33.8 µM (inactive)
COc1ccc(N2C(=O)C3c4[nH]c5cc(C)ccc5c4C4CCC(C(C)(C)C)CC4C3C2=O)cc1 (stereo not given) | > 10 µM (inactive)
CCCCCC(=O)OC[n+]1ccc(-c2c(COC(=O)NC(C)C)c(COC(=O)NC(C)C)c3n2CCC3)cc1 | > 100 µM (inactive)
Cc1ccc(C(CC(=O)C(C)(C)CN2CCCCC2)SCCS(=O)(=O)O)cc1 (stereo not given) | 11.8 µM (inactive)
COc1ccc(/C=C/c2cc(O)cc(OC)c2)cc1 | > 100 µM (inactive)
N#Cc1c(-c2ccc(Cl)cc2)c2c([nH]c1=O)-c1cc([N+](=O)[O-])ccc1CCC2 | 16.1 µM (inactive)
O=C(CCc1ccccc1)ON1C(=S)NC(c2ccccc2)(c2ccccc2)C1=S | 36 µM (inactive)
CC(C)(C)OC(=O)NC(Cc1ccccc1)OCc1ccccc1 (stereo not given) | 20.8 µM (inactive)
COc1ccc2nc3ccc(OC)cc3c(SCC3CO3)c2c1 (stereo not given) | 15.8 µM (inactive)
CC1(C)C=C(/C=N/Nc2ccc(Br)cc2)C(C#N)=C(O)C1(C#N)C#N | 33.8 µM (inactive)
COc1ccc(N2CC(=O)N(C(=O)COc3ccc(OCC(=O)N4C(=O)CN(c5ccc(OC)cc5)C4=S)cc3)C2=S)cc1 | > 100 µM (inactive)
O=P(CN1CCOCC1)(c1ccccc1)c1ccccc1 | > 100 µM (inactive)
Nc1c(-c2cccc3ccccc23)c2ccc([N+](=O)[O-])cc2c(=O)n1-c1nc2ccccc2s1 | 6.04 µM (inactive)
Cc1csc2c1-n1cccc1C2=O | 98.4 µM (inactive)
C=C1C(=O)OC2CC(C)C3C4OC4C(O)C3(C)C(O)C12 (stereo not given) | 22.1 µM (inactive)
O=S(O)CCCCCSSc1ccc(Cl)cc1 | 13.8 µM (inactive)

---

System: 786-0
TEST_NAME: NCI tumour cell line growth inhibition, 48 h
Activity calls are given as the source filed them. Rule as the data show it: active = GI50 up to about 1.1 µM and inactive = higher.
Entries annotated with measured GI50

COMPOUND | GI50
CCOC(=O)c1c(N2CCOCC2)[nH]c(=O)c(C(c2ccc(OC)cc2)c2c(O)c(C(=O)OCC)c(N3CCOCC3)[nH]c2=O)c1O | > 100 µM (inactive)
CCC(C)(C)c1ccc(OCCCCNC(=O)c2ccc3ccccc3c2O)c(C(C)(C)CC)c1 | 15.1 µM (inactive)
O=C1c2ccccc2C(=O)C1(Cl)C1(S(=O)(=O)O)c2ccccc2-c2ccccc21 | > 100 µM (inactive)
COC(=O)CNC(=O)CCSc1nnc(COc2ccc(Cl)cc2)n1-c1ccccc1 | 20.2 µM (inactive)
N#CC1N(C(=O)c2ccc(F)cc2)c2ccccc2N1C(=O)c1ccc(F)cc1 | 74.5 µM (inactive)
NCCNC(=O)CN(CC(=O)O)C1CCCCC1N(CC(=O)O)CC(=O)O (stereo not given) | > 100 µM (inactive)
c1ccc2c(c1)CCN2CCc1c[nH]c2ccccc12 | > 10 µM (inactive)
CC(C)(C)C1=NC(=P(c2ccccc2)(c2ccccc2)c2ccccc2)C(=O)O1 | > 100 µM (inactive)
CCN1CCc2sc3nc(S)n(C)c(=O)c3c2C1 | > 100 µM (inactive)
Nc1nccc(NCC2(CO)CCC2)n1 | > 100 µM (inactive)
COC(=O)c1ccc(-n2c(C)nc(=O)c(-c3ccccc3)c2C)cc1 | > 100 µM (inactive)
CSC(=S)N/N=C/c1ccccc1 | 39.4 µM (inactive)
O=C1/C(=C/c2ccc(Cl)cc2)CNC/C1=C\c1ccc(Cl)cc1 | 1.28 µM (inactive)
CCOC(OCC)[C@H](N)[C@@H](O)[C@@H](O)[C@H]1COC(C)(C)O1 | > 100 µM (inactive)
Cc1cc(NS(=O)(=O)c2ccc(Nc3c4ccccc4nc4c(C(=O)N5CCN(CCO)CC5)ccc(Cl)c34)cc2)no1 | > 100 µM (inactive)
CCC1(O)CC2CC(=O)OC2C1O (stereo not given) | > 100 µM (inactive)
CC[C@H](CC[C@@H](C)[C@H]1CC[C@H]2[C@@H]3CC=C4C[C@@H](O)CC[C@]4(C)[C@H]3CC[C@]12C)C(C)C [BETA-SITOSTEROL] | > 100 µM (inactive)
Cc1cc(N(CCC#N)CCC#N)ccc1/N=N/c1ccc(Br)cc1 | 13.2 µM (inactive)
O=C1Nc2ccc(S(=O)(=O)N(CCO)CCO)cc2/C1=C1/Nc2ccccc2C1=O | > 100 µM (inactive)
CN(C)CCNC(=O)c1cccc(NC(=O)c2ccccc2)c1[N+](=O)[O-] | > 100 µM (inactive)
